FYI, the data here is from the supplement of paper PMC12494721.

System: Ruminococcus gnavus DSM 108212
Measurement description: growth (OD595) fold change vs plate DMSO controls (fold change (ratio)); higher = more growth
Setup conditions: incubation time: 27 h, anaerobic, 37 °C
Counter-ions that a name gives are not always drawn.
Each entry gets Not satisfied if its growth stays under 0.9, and Satisfied if its growth is 0.9 or above.

Enquiry: State whether the measured growth reaches 0.9, counting equality as reaching it, for Cn1c(=O)c2c(ncn2CC(O)CO)n(C)c1=O (stereo not drawn) [Diprophylline] (20 µM)
Return: Not satisfied

Enquiry: State whether the measured growth reaches 0.9, counting equality as reaching it, for CC(c1cc2ccccc2s1)N(O)C(N)=O (stereo not drawn) [Zileuton] (20 µM)
Return: Satisfied

Enquiry: State whether the measured growth reaches 0.9, counting equality as reaching it, for CCC(=O)O[C@]1(C(=O)SCF)[C@H](C)C[C@H]2[C@@H]3C[C@H](F)C4=CC(=O)C=C[C@]4(C)[C@@]3(F)[C@@H](O)C[C@@]21C [Fluticasone propionate] (20 µM)
Return: Satisfied

Enquiry: State whether the measured growth reaches 0.9, counting equality as reaching it, for Cc1cccc(C)c1NC(=O)CC12CCCN1CCC2 [Pilsicainide Hydrochloride] (20 µM)
Return: Satisfied

Enquiry: State whether the measured growth reaches 0.9, counting equality as reaching it, for CC[C@H](c1ccc(O)cc1)[C@@H](CC)c1ccc(O)cc1 [Hexestrol] (20 µM)
Return: Not satisfied

Enquiry: State whether the measured growth reaches 0.9, counting equality as reaching it, for C[N+](C)(CCOc1ccccc1)Cc1ccccc1.O=C([O-])c1cc2ccccc2cc1O [Bephenium hydroxynaphthoate] (20 µM)
Return: Satisfied

----------
Test system: Clostridium sporogenes DSM 1664
Measurement description: growth (OD595) fold change vs plate DMSO controls (fold change (ratio)); higher = more growth
Setup conditions: incubation time: 27 h, anaerobic, 37 °C
Structures can show the parent of a compound that is named as a salt.
I'd be grateful if you could share measured growth for these entries.
Respond with the number and no other words.

Enquiry: # lookup: growth of CC(C)Oc1ccc2c(=O)c(-c3ccccc3)coc2c1 [Ipriflavone] (20 µM)
Return: 0.986

Enquiry: # lookup: growth of CC(C)(C)NCC(O)COc1cccc2c1CCC(=O)N2 (stereo not given) [Carteolol hydrochloride] (20 µM)
Return: 0.96

Enquiry: # lookup: growth of CCN(CC)CCNC(C(=O)OCCC(C)C)c1ccccc1 (stereo not given) [Camylofine chlorhydrate] (20 µM)
Return: 1.11

Enquiry: # lookup: growth of OC[C@@H](O)[C@@H](O[C@H]1O[C@H](CO)[C@@H](O)[C@H](O)[C@H]1O)[C@H](O)[C@@H](O)CO [Maltitol] (50 µM)
Return: 1

Enquiry: # lookup: growth of C[N+](C)(C)CCOC(N)=O [Carbachol chloride] (20 µM)
Return: 0.948

----------
Test system: Klebsiella aerogenes DSM 30053
Measurement description: fold change of Histamine concentration vs plate DMSO controls (fold change (ratio)); higher = more amine produced, active = hit call of the paper (significant change in both replicates, either direction)
Setup conditions: incubation time: 27 h, anaerobic, 37 °C
Where a name gives a salt, the structure may show the parent alone.
I'd be grateful if you could share measured fold change of Histamine concentration for these entries.
Respond with the number and no other words.

Enquiry: # lookup: fold change of Histamine concentration of CCOc1ccc(NC(N)=O)cc1 [(4-Ethoxyphenyl)urea] (50 µM)
Return: 0.964

Enquiry: # lookup: fold change of Histamine concentration of O=C(O)Cc1ccc(-c2ccccc2)cc1 [Felbinac] (20 µM)
Return: 0.921

Enquiry: # lookup: fold change of Histamine concentration of CCN(CC)CC#CCOC(=O)C(O)(c1ccccc1)C1CCCCC1 (stereo unspecified) [Oxybutynin chloride] (20 µM)
Return: 1.01

Enquiry: # lookup: fold change of Histamine concentration of CC(=O)OCC(=O)[C@@]1(O)[C@H](C)C[C@H]2[C@@H]3CCC4=CC(=O)C=C[C@]4(C)[C@@]3(F)[C@@H](O)C[C@@]21C [Dexamethasone acetate] (20 µM)
Return: 1.02

Enquiry: # lookup: fold change of Histamine concentration of COc1ccc2c(c1)N(C[C@H](C)CN(C)C)c1ccccc1S2 [Methotrimeprazine maleate salt] (20 µM)
Return: 1.01

Enquiry: # lookup: fold change of Histamine concentration of CC(C)Cc1ccc(CC(=O)O)cc1 [Ibufenac] (20 µM)
Return: 0.908

Enquiry: # lookup: fold change of Histamine concentration of COc1ccc(CNc2nc(N3CCC[C@H]3CO)ncc2C(=O)NCc2ncccn2)cc1Cl [Avanafil] (20 µM)
Return: 1.01

Enquiry: # lookup: fold change of Histamine concentration of CCc1ccc(CCOc2ccc(CC3SC(=O)NC3=O)cc2)nc1 (stereo unspecified) [Pioglitazone] (20 µM)
Return: 1

Enquiry: # lookup: fold change of Histamine concentration of CCN1CCN(Cc2ccc(Nc3ncc(F)c(-c4cc(F)c5nc(C)n(C(C)C)c5c4)n3)nc2)CC1 [Abemaciclib] (20 µM)
Return: 1.02

Enquiry: # lookup: fold change of Histamine concentration of CCCCOc1ccc(CC(=O)NO)cc1 [Bufexamac] (20 µM)
Return: 1.25

Enquiry: # lookup: fold change of Histamine concentration of Brc1c(NC2=NCCN2)ccc2nccnc12 [Brimonidine L-tartrate] (20 µM)
Return: 0.928

Enquiry: # lookup: fold change of Histamine concentration of CNCCC(Oc1ccccc1OC)c1ccccc1 (stereo unspecified) [Nisoxetine hydrochloride] (20 µM)
Return: 1.02

Enquiry: # lookup: fold change of Histamine concentration of CC(=O)N[C@@H](CCC(N)=O)C(=O)O [Acetyl-L-glutamine] (20 µM)
Return: 1.03

Enquiry: # lookup: fold change of Histamine concentration of COc1ccc(CC2c3cc(OC)c(OC)cc3CC[N+]2(C)CCC(=O)OCCCCCOC(=O)CC[N+]2(C)CCc3cc(OC)c(OC)cc3C2Cc2ccc(OC)c(OC)c2)cc1OC (stereo unspecified) [Atracurium besylate] (20 µM)
Return: 1.01

Enquiry: # lookup: fold change of Histamine concentration of Cc1cccc(C)c1OCC(C)N (stereo unspecified) [Mexiletine hydrochloride] (20 µM)
Return: 0.934

Enquiry: # lookup: fold change of Histamine concentration of Cc1cc(/C=C/c2ccc3cc(N(C)C)ccc3[n+]2C)c(C)n1-c1ccccc1 [Pyrvinium pamoate] (20 µM)
Return: 0.936

----------
Tested on: Klebsiella aerogenes DSM 30053
Measurement description: fold change of Cadaverine concentration vs plate DMSO controls (fold change (ratio)); higher = more amine produced, active = hit call of the paper (significant change in both replicates, either direction)
Setup conditions: incubation time: 27 h, anaerobic, 37 °C
Structures can show the parent of a compound that is named as a salt.
Reported property: fold change of Cadaverine concentration
Respond with the number and no other words.

Enquiry: # lookup: fold change of Cadaverine concentration of Clc1ccc2nsnc2c1NC1=NCCN1 [Tizanidine hydrochloride] (20 µM)
Return: 1.02

Enquiry: # lookup: fold change of Cadaverine concentration of CC(NCCc1ccc(O)cc1)C(O)c1ccc(O)cc1 (configuration not stated) [Ritodrine hydrochloride] (20 µM)
Return: 1.01

Enquiry: # lookup: fold change of Cadaverine concentration of C#C[C@]1(O)CC[C@H]2[C@@H]3CCC4=CCCC[C@@H]4[C@H]3CC[C@@]21C [Lynestrenol] (20 µM)
Return: 0.989

Enquiry: # lookup: fold change of Cadaverine concentration of Nc1cc(C(Cl)=C(Cl)Cl)c(S(N)(=O)=O)cc1S(N)(=O)=O [Clorsulon] (20 µM)
Return: 0.978

Enquiry: # lookup: fold change of Cadaverine concentration of Cc1ccc(C(=O)c2cc(O)c(O)c([N+](=O)[O-])c2)cc1 [Tolcapone] (20 µM)
Return: 1

Enquiry: # lookup: fold change of Cadaverine concentration of O=C1OCCN1/N=C/c1ccc([N+](=O)[O-])o1 [Furazolidone] (20 µM)
Return: 1

Enquiry: # lookup: fold change of Cadaverine concentration of CC(=O)c1ccc2c(c1)N(CCCN(C)C)c1ccccc1S2 [Acetopromazine maleate salt] (20 µM)
Return: 0.983

Enquiry: # lookup: fold change of Cadaverine concentration of c1ccc2c(c1)CCCC2C1=NCCN1 (configuration not stated) [Tetrahydrozoline hydrochloride] (20 µM)
Return: 1

Enquiry: # lookup: fold change of Cadaverine concentration of COc1cc(-c2ccc(=O)[nH]n2)ccc1OC(F)F [Zardaverine] (20 µM)
Return: 0.997

Enquiry: # lookup: fold change of Cadaverine concentration of CCCCNc1ccc(C(=O)OCCN(C)C)cc1 [Tetracaine hydrochloride] (20 µM)
Return: 0.991

Enquiry: # lookup: fold change of Cadaverine concentration of OCCOCCN1CCN(C(c2ccccc2)c2ccc(Cl)cc2)CC1 (configuration not stated) [Hydroxyzine dihydrochloride] (20 µM)
Return: 1.02

Enquiry: # lookup: fold change of Cadaverine concentration of CN1CCC(=C2c3ccccc3CC(=O)c3sccc32)CC1 [Ketotifen fumarate] (20 µM)
Return: 1.01

Enquiry: # lookup: fold change of Cadaverine concentration of COC(=O)C1=C(C)NC(C)=C(C(=O)OC2CCCN(Cc3ccccc3)C2)C1c1cccc([N+](=O)[O-])c1 (configuration not stated) [Benidipine hydrochloride] (20 µM)
Return: 1.02

Enquiry: # lookup: fold change of Cadaverine concentration of Cc1cc(=O)n(-c2ccccc2)n1C [Antipyrine] (20 µM)
Return: 0.999

Enquiry: # lookup: fold change of Cadaverine concentration of CC1=NN(c2ccccc2)C(=O)C1 [Edaravone] (20 µM)
Return: 1.01

Enquiry: # lookup: fold change of Cadaverine concentration of CCOC1O[C@H]([C@@H](COCc2ccccc2)OCc2ccccc2)[C@H](OCc2ccccc2)[C@H]1O (some centres not stated) [Tribenoside] (20 µM)
Return: 0.987

Enquiry: # lookup: fold change of Cadaverine concentration of C[C@]12CC[C@@H]3c4ccc(O)cc4CC[C@H]3[C@@H]1CCC2=O [Estrone] (20 µM)
Return: 1.01
